# TEST DETAILS: chemical genetic growth profiling, strain panel (AID 1159580);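 note: tested at 20 µM; growth read once vehicle control cultures reached saturation at 30 °C; 1 = growth at the plate median or of vehicle wells; lower values mean less growth of the strain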
# STATED CONDITIONS: S. cerevisiae deletion strains, growth OD, locus YNL250W, strain rad50, hits give low values
The whole screen tested about 5,500 compounds, of which about 2,000 (36%) were called active. Roughly 18% stayed inconclusive and do not appear here. The list shows a part of the results.
// normalized growth lookup, one value per entry
EXPERIMENTAL ENDPOINT: normalized growth

>  <MOLECULE>
C/C=C(/C)C(=O)O[C@@H]1Cc2c(ccc3ccc(=O)oc23)OC1(C)C

>  <EXPERIMENTAL ENDPOINT>
normalized growth

>  <VAL>
0.981

$$$$
>  <MOLECULE>
C[C@@H]1CCC2[C@](C)(CO)[C@@H](O)CC[C@]2(C)[C@@]12CC[C@@](CO)(CCO)O2 (stereo partly drawn)

>  <EXPERIMENTAL ENDPOINT>
normalized growth

>  <VAL>
0.985

$$$$
>  <MOLECULE>
CC(=O)OCC(=O)[C@@]1(O)CCC2C3C[C@H](C)C4=CC(=O)C=CC4(C)C3[C@@H](O)CC21C (stereo partly drawn)

>  <EXPERIMENTAL ENDPOINT>
normalized growth

>  <VAL>
1

$$$$
>  <MOLECULE>
C/C=C(\C)C(=O)O[C@@H]1c2c(ccc3ccc(=O)oc23)OC(C)(C)[C@@H]1OC(C)=O

>  <EXPERIMENTAL ENDPOINT>
normalized growth

>  <VAL>
1.02

$$$$
>  <MOLECULE>
CC1(C)Oc2ccc3ccc(=O)oc3c2CC1O (stereo not drawn)

>  <EXPERIMENTAL ENDPOINT>
normalized growth

>  <VAL>
1.01

$$$$
>  <MOLECULE>
CC(=O)O[C@@H]1c2c(ccc3ccc(=O)oc23)OC(C)(C)[C@@H]1OC(=O)CC(C)C

>  <EXPERIMENTAL ENDPOINT>
normalized growth

>  <VAL>
1.02

$$$$
>  <MOLECULE>
C/C=C/CC(C)C(O)C1C(=O)NC(CC)C(=O)N(C)CC(=O)N(C)C(CC(C)C)C(=O)NC(C(C)C)C(=O)N(C)C(CC(C)C)C(=O)NC(C)C(=O)NC(C)C(=O)N(C)C(CC(C)C)C(=O)N(C)C(CC(C)C)C(=O)N(C)C(C(C)C)C(=O)N1C (stereo not drawn)

>  <EXPERIMENTAL ENDPOINT>
normalized growth

>  <VAL>
1.01

$$$$
>  <MOLECULE>
CCc1ccc2c(O)c3c(cc2c1C(=O)OC)C(=O)c1c(O)ccc(O)c1C3=O

>  <EXPERIMENTAL ENDPOINT>
normalized growth

>  <VAL>
0.972

$$$$

* * *

# TEST DETAILS: chemical genetic growth profiling, strain panel (AID 1159580);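 note: tested at 20 µM; growth read once vehicle control cultures reached saturation at 30 °C; 1 = growth at the plate median or of vehicle wells; lower values mean less growth of the strain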
# STATED CONDITIONS: S. cerevisiae deletion strains, growth OD, locus YMR078C, strain ctf18, hits give low values
Screen size: about 5,500 compounds; about 2,000 (36%) were called active. Not shown: some 18% with an inconclusive outcome. Some of the results follow.
Measured normalized growth by item
EXPERIMENTAL ENDPOINT: normalized growth

>  <COMPOUND>
COC(=O)NC(=S)Nc1ccccc1NC(=S)NC(=O)OC

>  <VAL>
1.02

$$$$
>  <COMPOUND>
CC1=C2C(O)C(=O)OC3CC4C(C)(C)C(=O)C=C[C@]4(C)C(CC1)[C@]23C (some centres undefined)

>  <VAL>
1.02

$$$$
>  <COMPOUND>
CC1=CC(=O)C2C(C)(C)CCC[C@]2(C)[C@@]1(O)CCc1ccoc1 (some centres undefined)

>  <VAL>
0.974

$$$$
>  <COMPOUND>
COC(=O)C[C@H]1C(C)(C)[C@@H](O)[C@@H]2CC3=C4CC(O)O[C@@H](c5ccoc5)[C@]4(C)CCC3[C@@]1(C)C2=O (some centres undefined)

>  <VAL>
0.957

$$$$
>  <COMPOUND>
COP(N)(=O)SC (centres undefined)

>  <VAL>
1.02

$$$$
>  <COMPOUND>
COc1cc(C)c2c(=O)c3c(O)cc(O)cc3oc2c1

>  <VAL>
0.954

$$$$
>  <COMPOUND>
COc1ccc(-c2cc(=O)c3c(O)cc(O)c(-c4cc(-c5cc(=O)c6c(O)cc(O)cc6o5)ccc4OC)c3o2)cc1

>  <VAL>
1.02

$$$$
>  <COMPOUND>
O=C(CCCN1CCC(O)(c2ccc(Cl)cc2)CC1)c1ccc(F)cc1

>  <VAL>
1.01

$$$$
>  <COMPOUND>
COc1cc(O)c2c(=O)cc(-c3ccc(OC)c(-c4c(O)cc(O)c5c(=O)cc(-c6ccc(O)cc6)oc45)c3)oc2c1

>  <VAL>
0.997

$$$$
